measured attribute: Ki

Recorded Ki for CC(C)C(=O)N(Cc1ccccc1-c1ccccc1)[C@H]1CCNC1 on Voltage-gated inwardly rectifying potassium channel KCNH2 (Homo sapiens) was 2840 nM

Kindly note: Voltage-gated inwardly rectifying potassium channel KCNH2 (Homo sapiens), CS(=O)(=O)N(Cc1ccccc1-c1ccccc1)[C@H]1CCNC1 , Ki value reported: > 2700 nM

====

What Ki was measured for each of the following?
biological target: Sodium-dependent dopamine transporter (Homo sapiens, UniProt Q01959); assay: Inhibition of [3H]dopamine reuptake at human DAT expressed in HEK293 cells by SPA
Sequence (Q01959 whole entry): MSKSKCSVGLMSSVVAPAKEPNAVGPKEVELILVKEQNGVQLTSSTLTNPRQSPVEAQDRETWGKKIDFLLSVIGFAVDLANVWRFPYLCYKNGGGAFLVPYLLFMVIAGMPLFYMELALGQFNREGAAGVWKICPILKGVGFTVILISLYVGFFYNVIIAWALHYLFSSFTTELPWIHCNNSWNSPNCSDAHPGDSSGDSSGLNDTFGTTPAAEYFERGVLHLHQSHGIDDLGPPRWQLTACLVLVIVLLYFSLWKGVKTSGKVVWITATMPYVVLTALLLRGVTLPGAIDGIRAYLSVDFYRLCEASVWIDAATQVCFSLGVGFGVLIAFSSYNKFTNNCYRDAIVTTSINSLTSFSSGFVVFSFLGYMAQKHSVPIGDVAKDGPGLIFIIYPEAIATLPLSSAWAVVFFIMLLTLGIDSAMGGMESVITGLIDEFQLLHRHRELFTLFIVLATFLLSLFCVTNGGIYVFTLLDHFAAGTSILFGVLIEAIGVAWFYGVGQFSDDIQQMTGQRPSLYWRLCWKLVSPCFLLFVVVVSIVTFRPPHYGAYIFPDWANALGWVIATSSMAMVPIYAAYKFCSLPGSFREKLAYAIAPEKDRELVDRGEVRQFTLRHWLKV
Form entry: value (nM) — number only.

Tested system Sodium-dependent dopamine transporter (Homo sapiens, UniProt Q01959); Ki recorded for CSc1ccccc1CN(C(=O)C(C)C)[C@H]1CCNC1 was 1380

Ki for Sodium-dependent dopamine transporter (Homo sapiens, UniProt Q01959) with input O=S(=O)(N(Cc1ccccc1-c1ccccc1)[C@H]1CCNC1)C(F)(F)F equals 2080

With Sodium-dependent dopamine transporter (Homo sapiens, UniProt Q01959) as the test system, CCS(=O)(=O)N(Cc1ccccc1-c1ccccc1)[C@H]1CCNC1 showed Ki of 2760

Record O=CN(Cc1ccccc1-c1ccccc1)[C@H]1CCNC1 / Sodium-dependent dopamine transporter (Homo sapiens, UniProt Q01959), Ki recorded as 2130

The recorded Ki with Sodium-dependent dopamine transporter (Homo sapiens, UniProt Q01959) for CC(C)C(=O)N(Cc1ccccc1-c1ccccc1)[C@H]1CCNC1 was 3740

Field Ki (system: Sodium-dependent dopamine transporter (Homo sapiens, UniProt Q01959)) for entry CCOC(=O)N(Cc1ccccc1-c1ccccc1)[C@H]1CCNC1 = 3030

Tested system Sodium-dependent dopamine transporter (Homo sapiens, UniProt Q01959); Ki recorded for CC(C)C(=O)N(Cc1ccccc1C1CC1)[C@H]1CCNC1 was 2920

Item: CS(=O)(=O)N(Cc1ccccc1-c1ccccc1)[C@@H]1CCNC1 | System: Sodium-dependent dopamine transporter (Homo sapiens, UniProt Q01959) | Ki: 2390

Considering CS(=O)(=O)N(Cc1ccccc1C(F)(F)F)[C@H]1CCNC1 , its Ki with Sodium-dependent dopamine transporter (Homo sapiens, UniProt Q01959) was recorded as 2890

Fill in: Sodium-dependent dopamine transporter (Homo sapiens, UniProt Q01959) Ki for CCOC(=O)N(Cc1ccccc1Oc1ccccc1)[C@H]1CCNC1 = 1900

Record CN(C)S(=O)(=O)N(Cc1ccccc1-c1ccccc1)[C@H]1CCNC1 / Sodium-dependent dopamine transporter (Homo sapiens, UniProt Q01959), Ki recorded as 2690
